# test_system: 3-pTza peptide (Biotin-AminocaproicAcid-AGAG-3-pTza-AGAG)
# assay_name: BLI
Parameter kon: see the listing below.
Field format: number, assumed M⁻¹ s⁻¹, no unit text.

Solved entries:
{"columns": ["binder", "kon [M⁻¹ s⁻¹]"],
 "data": [
  ["hSC44.13 IgG (antibody, V domains shown) VH: EVQLVESGGGLVQPGGSLRLSCTASGFSIDSYGFSWVRQAPGKGLEHIGYLTAGGRAFYASWAKSRSTITRNTNENTVTLKMNSLRAEDTAVYYCAKLGTGSPVAIWG VL: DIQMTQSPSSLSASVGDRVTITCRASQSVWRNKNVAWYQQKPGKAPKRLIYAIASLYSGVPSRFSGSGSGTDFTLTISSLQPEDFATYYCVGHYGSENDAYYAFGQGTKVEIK", 182000],
  ["hSC44.3 IgG (antibody, V domains shown) VH: EVQLVESGGGLVQPGGSLRLSCTASGFSIDSYGFSWVRQAPGKGLEHIGYLTAGGRAFYASWAKSRSTITRNTNENTVTLKMNSLRAEDTAVYYCAKIGSGSPVAIWG VL: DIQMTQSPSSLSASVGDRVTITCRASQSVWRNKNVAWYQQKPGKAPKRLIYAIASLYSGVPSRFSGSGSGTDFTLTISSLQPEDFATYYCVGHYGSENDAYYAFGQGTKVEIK", 40700]
]}

# kon of hSC44.8 IgG (antibody, V domains shown) VH: EVQLVESGGGLVQPGGSLRLSCTASGFSIDSYGFSWVRQAPGKGLEHIGYLTAGGRAFYASWAKSRSTITRNTNENTVTLKMNSLRAEDTAVYYCAKIGTGSRVAIWG VL: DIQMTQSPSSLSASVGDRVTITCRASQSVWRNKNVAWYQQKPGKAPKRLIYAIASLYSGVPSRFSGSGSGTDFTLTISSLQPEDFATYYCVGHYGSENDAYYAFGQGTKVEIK = 359000
